System: PROb cells
protocol.details: Chemo-sensitivity by MTS assay, PROb cells
Format: cell-based, rat
test.settings: Ad.Egr-TNF.11D and chemotherapy 24 hrs, higher concentration: cisplatin 460 μM, doxorubicin 300 μM, 5-FU 200 mM, taxol 140 μM
Where a name gives a salt, the structure may show the parent alone.
Please provide measured surviving fraction for the entries that follow.

Q. // returns reported surviving fraction for input N.N.[Cl][Pt][Cl] [cisplatin]
A. 77%

Q. Same again, this time with CC(=O)O[C@H]1C(=O)[C@@]2(C)[C@H]([C@H](OC(=O)c3ccccc3)[C@]3(O)C[C@H](OC(=O)[C@H](O)[C@@H](NC(=O)c4ccccc4)c4ccccc4)C(C)=C1C3(C)C)[C@]1(OC(C)=O)CO[C@@H]1C[C@@H]2O [paclitaxel, Paclitaxel]
A. 8%

Q. Same again, this time with COc1cccc2c1C(=O)c1c(O)c3c(c(O)c1C2=O)C[C@@](O)(C(=O)CO)C[C@@H]3O[C@H]1C[C@H](N)[C@H](O)[C@H](C)O1 [doxorubicin, doxorubicin hydrochloride]
A. 85%

Q. Same again, this time with O=c1[nH]cc(F)c(=O)[nH]1 [5-FU, 5-fluorouracil]
A. 38%
